system-name: TYK2 (Homo sapiens)
Construct: Degradation of TYK2 in cells was quantitatively measured using Meso Scale Discovery (MSD) technology; endogenous in cells; host or cells: OCI-LY10
Sequence (P29597 whole entry): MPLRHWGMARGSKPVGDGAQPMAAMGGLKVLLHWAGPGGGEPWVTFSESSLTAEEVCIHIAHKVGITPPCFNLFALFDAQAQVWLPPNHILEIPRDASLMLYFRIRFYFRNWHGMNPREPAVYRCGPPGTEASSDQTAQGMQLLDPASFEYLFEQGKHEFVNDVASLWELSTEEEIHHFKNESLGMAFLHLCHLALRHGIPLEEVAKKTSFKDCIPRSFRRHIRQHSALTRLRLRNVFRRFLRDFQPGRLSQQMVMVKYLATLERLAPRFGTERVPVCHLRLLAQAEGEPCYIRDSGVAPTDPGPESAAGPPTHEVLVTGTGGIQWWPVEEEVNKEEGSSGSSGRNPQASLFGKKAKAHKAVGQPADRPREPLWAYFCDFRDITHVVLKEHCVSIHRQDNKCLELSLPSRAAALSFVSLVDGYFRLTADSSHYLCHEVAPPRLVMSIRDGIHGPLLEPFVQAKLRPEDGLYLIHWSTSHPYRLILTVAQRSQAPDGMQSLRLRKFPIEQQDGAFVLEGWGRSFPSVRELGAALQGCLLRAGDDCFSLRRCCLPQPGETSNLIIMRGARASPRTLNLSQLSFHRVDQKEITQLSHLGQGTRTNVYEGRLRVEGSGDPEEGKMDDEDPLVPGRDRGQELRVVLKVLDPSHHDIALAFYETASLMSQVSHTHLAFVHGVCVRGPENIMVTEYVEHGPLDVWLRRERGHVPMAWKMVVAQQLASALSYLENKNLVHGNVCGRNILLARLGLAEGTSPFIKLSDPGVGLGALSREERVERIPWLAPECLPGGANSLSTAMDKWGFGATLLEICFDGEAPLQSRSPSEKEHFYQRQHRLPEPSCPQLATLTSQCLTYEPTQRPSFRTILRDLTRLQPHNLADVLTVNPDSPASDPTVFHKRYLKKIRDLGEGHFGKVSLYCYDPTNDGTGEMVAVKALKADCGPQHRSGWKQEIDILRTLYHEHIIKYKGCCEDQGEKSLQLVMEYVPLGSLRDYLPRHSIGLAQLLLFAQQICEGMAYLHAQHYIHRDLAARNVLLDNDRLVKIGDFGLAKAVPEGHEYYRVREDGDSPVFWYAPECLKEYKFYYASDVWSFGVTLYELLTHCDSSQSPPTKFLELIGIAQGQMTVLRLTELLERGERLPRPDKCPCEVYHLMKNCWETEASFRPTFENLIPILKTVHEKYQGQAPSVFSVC
assay-method-text: TYK2 MSD degradation in OCI-LY10 cells
Type: cell-based
test-conditions: TYK2 degradation in OCI-LY10 cells, 4 to 24 hours incubation, read-out: TYK2 MSD OCI-LY10 Rel-DC50
quantity-name: DC50

# count of solved cases: 2
[
  {
    "compound": "CNc1cc(N2CCc3c(-c4cc(CN5CCN(c6ccc7c(c6)n(C)c(=O)n7C6CCC(=O)NC6=O)CC5)ccn4)cccc32)nn2c(C(=O)NC3CC3)cnc12 (stereo not drawn) [I-68]",
    "system-name": "TYK2 (Homo sapiens)",
    "measured-result": "< 1 nM"
  },
  {
    "compound": "CNc1cc(N2CCc3c(CN4CCC(N5CCC(N6CCN(C(=O)c7ccc(Cl)c(N8CCC(=O)NC8=O)c7)CC6)C5)C(F)(F)C4)cccc32)nn2c(C(=O)N[C@@H]3C[C@@H]3F)cnc12 (stereo partly drawn) [I-803]",
    "system-name": "TYK2 (Homo sapiens)",
    "measured-result": "< 1 nM"
  }
]

# evaluate next
Ask: Give the measured DC50 of CNc1cc(N2CCc3c(-c4ccc(CN5CCC(Oc6ccc(C7CCC(=O)NC7=O)c(Cl)c6)CC5)cn4)cccc32)nn2c(C(=O)N[C@@H]3C[C@@H]3F)cnc12 (stereo partly drawn) [I-387] .
Reply: 10 to 100 nM

----------
system-name: TYK2 (Homo sapiens)
Construct: Degradation of TYK2 in cells was quantitatively measured using Meso Scale Discovery (MSD) technology; endogenous in cells; host or cells: OCI-LY10
assay-method-text: TYK2 MSD degradation in OCI-LY10 cells
Assay type: cell-based
test-conditions: TYK2 degradation in OCI-LY10 cells, 4 to 24 hours incubation
quantity-name: TYK2 MSD OCI-LY10 Dmax %

[
  {
    "molecule": "CNc1cc(N2CCc3c(-c4ccc(CN5CC(F)(F)C6(CCN(C(=O)c7ccc(Cl)c(N8CCC(=O)NC8=O)c7)CC6)C5)cn4)cccc32)nn2c(C(=O)N[C@@H]3C[C@@H]3F)cnc12",
    "system-name": "TYK2 (Homo sapiens)",
    "measured-result": "B (B (90 to >75%))"
  },
  {
    "molecule": "CNc1cc(N2CCc3c(-c4ccc(CN5CCC6(CCN(C(=O)c7ccc(Cl)c(N8CCC(=O)NC8=O)c7)CC6)C(F)(F)C5)cn4)cccc32)nn2c(C(=O)N[C@@H]3CC[C@H]3C(F)(F)F)cnc12",
    "system-name": "TYK2 (Homo sapiens)",
    "measured-result": "D (D (<50%))"
  },
  {
    "molecule": "CNc1cc(N2CC3(CCN(c4ccc5c(c4)n(C)c(=O)n5C4CCC(=O)NC4=O)CC3)c3ccccc32)nn2c(C(=O)NC3CC3)cnc12 (centres unmarked)",
    "system-name": "TYK2 (Homo sapiens)",
    "measured-result": "D (D (<50%))"
  },
  {
    "molecule": "CNc1cc(N2CCc3c(CN4CCC(N5CCC6(CCN(C(=O)c7ccc(Cl)c(N8CCC(=O)NC8=O)c7)CC6)CC5)CC4)cccc32)nn2c(C(=O)N[C@@H]3C[C@@H]3F)cnc12",
    "system-name": "TYK2 (Homo sapiens)",
    "measured-result": "B (B (90 to >75%))"
  }
]
